Kindly supply the reported protein stability index values for the records listed here.
B1: PTPRD (parent)
chain: ITWFKDFLPVDTSNNNGRIKQLRS

Variants of: B1
Experiment: protein stability index of a GFP-peptide fusion (GPS, HEK-293T) (PSI 1-6); higher = more stable;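 note: lentivirally expressed fusions sorted by FACS into six bins by GFP to DsRed ratio, PSI derived from sequencing read proportions per bin multiplied by bin number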
Settings: c terminus: a fixed tail appended
Number only, no unit.

# variant ITWFKDFLPVDTSNNNGRIKQLRW ; its protein stability index = 2.63

# variant ITWFKDFLPVDTSNNNGRIKQERS ; its protein stability index = 2.07

# variant ITWFKSFLPVDTSNNNGRIKQLRS ; its protein stability index = 2.27

# variant ITWFKDFLPVETSNNNGRIKQLRS ; its protein stability index = 1.99

# variant ITWFKDFLPVDTSNNNGRIKQLRL ; its protein stability index = 1.41

# variant ITWNKDFLPVDTSNNNGRIKQLRS ; its protein stability index = 2.57

# variant ITWFKDFLIVDTSNNNGRIKQLRS ; its protein stability index = 2.02

# variant ITWFKDFLPVDTSNNKGRIKQLRS ; its protein stability index = 1.98

# variant IKWFKDFLPVDTSNNNGRIKQLRS ; its protein stability index = 2.03

# variant ITWFKDFLPVDTSNNNGRNKQLRS ; its protein stability index = 1.95

# variant ETWFKDFLPVDTSNNNGRIKQLRS ; its protein stability index = 3.66

# variant ITWFKDFLPVDTSNNNGRIYQLRS ; its protein stability index = 2.19

# variant ITWPKDFLPVDTSNNNGRIKQLRS ; its protein stability index = 2.74

# variant ITWFKAFLPVDTSNNNGRIKQLRS ; its protein stability index = 1.78

# variant ITWFKDFLPEDTSNNNGRIKQLRS ; its protein stability index = 2.23

# variant ITWDKDFLPVDTSNNNGRIKQLRS ; its protein stability index = 3.25

# variant ITWFKDFLPVDTCNNNGRIKQLRS ; its protein stability index = 1.54

# variant ITWFKDFLPYDTSNNNGRIKQLRS ; its protein stability index = 1.89

# variant ITWFKDFLPVDTSGNNGRIKQLRS ; its protein stability index = 1.92

# variant ITHFKDFLPVDTSNNNGRIKQLRS ; its protein stability index = 3.33

# variant WTWFKDFLPVDTSNNNGRIKQLRS ; its protein stability index = 2.17

# variant ITAFKDFLPVDTSNNNGRIKQLRS ; its protein stability index = 3.76

# variant ITWFKDFLLVDTSNNNGRIKQLRS ; its protein stability index = 2.84

# variant ITWFKDFLSVDTSNNNGRIKQLRS ; its protein stability index = 2.13

# variant ITWFKDFLPVDTSNNNGRIKQHRS ; its protein stability index = 2.28

# variant ITWFKDFLPVATSNNNGRIKQLRS ; its protein stability index = 1.9

# variant ITWFKDFLPVDTSNSNGRIKQLRS ; its protein stability index = 1.67

# variant ITWFKDFLPVDTSNNNGRIHQLRS ; its protein stability index = 1.63

# variant ITWFKDFLPVDTSNNNGRIKQLRE ; its protein stability index = 1.77

# variant ITWFKDFLPVDTSNNNGRITQLRS ; its protein stability index = 1.95

# variant ITWFKDFLPVDTSNNTGRIKQLRS ; its protein stability index = 2.38

# variant ITWFKDFLPVDTSNNNGRIKQLRD ; its protein stability index = 1.9

# variant ITWFKDFLPVDQSNNNGRIKQLRS ; its protein stability index = 2.25

# variant ITWFKDFLPVDRSNNNGRIKQLRS ; its protein stability index = 1.9

# variant ITWFKDFLPVDTSNCNGRIKQLRS ; its protein stability index = 2.26

# variant ITWFKDFLPMDTSNNNGRIKQLRS ; its protein stability index = 1.86

# variant ITWFKDFLPVDTSNNNGRWKQLRS ; its protein stability index = 1.46

# variant ITQFKDFLPVDTSNNNGRIKQLRS ; its protein stability index = 3.13

# variant ITWFKDFLPNDTSNNNGRIKQLRS ; its protein stability index = 2.34

# variant ITWFKGFLPVDTSNNNGRIKQLRS ; its protein stability index = 2.27

# variant ITWFKDFLPVDHSNNNGRIKQLRS ; its protein stability index = 1.48

# variant ITWFKDFLVVDTSNNNGRIKQLRS ; its protein stability index = 2.04

# variant ITWFKDFLPVYTSNNNGRIKQLRS ; its protein stability index = 1.67

# variant ITWFKDFLPKDTSNNNGRIKQLRS ; its protein stability index = 2.07

# variant ITWFKDFLPVDTSNFNGRIKQLRS ; its protein stability index = 1.6

# variant ITWFKDGLPVDTSNNNGRIKQLRS ; its protein stability index = 2.25

# variant ITWFKDFLPVDTSNNNGRIKKLRS ; its protein stability index = 2.58

# variant ITWFKDFLPVDTSNNNPRIKQLRS ; its protein stability index = 1.73

# variant ITWFKDFQPVDTSNNNGRIKQLRS ; its protein stability index = 1.78

# variant ITWFKDFLPVDTFNNNGRIKQLRS ; its protein stability index = 1.52

# variant ITWFKDFLPVDTSNNNGRICQLRS ; its protein stability index = 1.43

# variant ITWFKDFLPVDWSNNNGRIKQLRS ; its protein stability index = 1.84

# variant ITWFKDFLRVDTSNNNGRIKQLRS ; its protein stability index = 1.43

# variant ITWFKDFLPVDTSNNNGVIKQLRS ; its protein stability index = 2.33

# variant ITWFKDFLPVDASNNNGRIKQLRS ; its protein stability index = 1.98

# variant ITWFKDFLPVWTSNNNGRIKQLRS ; its protein stability index = 2.33

# variant IGWFKDFLPVDTSNNNGRIKQLRS ; its protein stability index = 2.78

# variant ITWFKDFLYVDTSNNNGRIKQLRS ; its protein stability index = 1.66

# variant IRWFKDFLPVDTSNNNGRIKQLRS ; its protein stability index = 1.59

# variant ITWFKPFLPVDTSNNNGRIKQLRS ; its protein stability index = 1.85

# variant ITWFKDFLPVDTSNNNGRIRQLRS ; its protein stability index = 1.53

# variant RTWFKDFLPVDTSNNNGRIKQLRS ; its protein stability index = 3.03

# variant IAWFKDFLPVDTSNNNGRIKQLRS ; its protein stability index = 2.34

# variant ITWFKDFLPVDTSNNRGRIKQLRS ; its protein stability index = 1.65

# variant ITWFKDFLPVDTSLNNGRIKQLRS ; its protein stability index = 1.96

# variant IYWFKDFLPVDTSNNNGRIKQLRS ; its protein stability index = 1.68

# variant ITWFKDSLPVDTSNNNGRIKQLRS ; its protein stability index = 2.36

# variant ITFFKDFLPVDTSNNNGRIKQLRS ; its protein stability index = 2.25

# variant ITWFKDFLPVDTSNNNGRIKQLRT ; its protein stability index = 1.51

# variant ITWFKDDLPVDTSNNNGRIKQLRS ; its protein stability index = 2.74

# variant PTWFKDFLPVDTSNNNGRIKQLRS ; its protein stability index = 3.97

# variant ITWFKDFLPVDTSNNNGRIKQLRK ; its protein stability index = 2.15

# variant ITWFKDFLPVDTSNNNGRIKQLRV ; its protein stability index = 1.52

# variant ITWFKDFLPVDTSNNNGRIKQQRS ; its protein stability index = 1.62

# variant ITWAKDFLPVDTSNNNGRIKQLRS ; its protein stability index = 2.17

# variant ITWFKDFLPVDTSYNNGRIKQLRS ; its protein stability index = 1.51

# variant ITWFKDFLPVDTSNNNGRIKQLRC ; its protein stability index = 2.32

# variant IMWFKDFLPVDTSNNNGRIKQLRS ; its protein stability index = 1.96

# variant ITWFKDFLPVDTSNNNGRIKQLIS ; its protein stability index = 1.88

# variant ITWFKDFLPVDTSNNNGRIKQMRS ; its protein stability index = 1.88

# variant ITWFKDFLPVFTSNNNGRIKQLRS ; its protein stability index = 1.9

# variant ITWFKDFLEVDTSNNNGRIKQLRS ; its protein stability index = 2

# variant ITWFKDWLPVDTSNNNGRIKQLRS ; its protein stability index = 1.82

# variant ITWFKDFLPVDTSNNNGRIKQWRS ; its protein stability index = 1.84

# variant ITWFHDFLPVDTSNNNGRIKQLRS ; its protein stability index = 2.06

# variant ITWFKDFLPVDTSNNNGRIKQDRS ; its protein stability index = 2

# variant ITWFKDFLPVDTSNNNGRIKQLDS ; its protein stability index = 2.39

# variant ATWFKDFLPVDTSNNNGRIKQLRS ; its protein stability index = 3.26

# variant ITWFVDFLPVDTSNNNGRIKQLRS ; its protein stability index = 1.51

# variant ITWFKDFLPVDTSNNNGRIKQYRS ; its protein stability index = 2.73

# variant ITWFKDFLPVPTSNNNGRIKQLRS ; its protein stability index = 2.06

Data provenance: the supplement of paper PMC10567573
